Attribution: PubChem BioAssay

system: Fibrinogen (Alexa647-labelled); assay: fibrinogen binders on compound microarrays, profiling panel, artefact control for SMM control-protein annotation, biochemical, small-molecule microarray, 635/667 nm fluorescence (AID 1131); settings: fibrinogen-A647 binding fluorescence, higher = more signal;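 note: z-score merges 667 nm fluorescence with per-spot signal-to-noise over triplicate slides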

Compound: Cc1ccc([C@H]2[C@H](C(=O)O)[C@H](Sc3ccccc3)[C@@H](C(C)C)N2S(=O)(=O)c2ccc(C)cc2)cc1
Target or system: Fibrinogen (Alexa647-labelled)
composite z-score: 0.996

Compound: O=C1[C@]2(CO)C=C(Br)[C@@H](C[C@@H]2c2ccccc2)[C@@]12CO2
Target or system: Fibrinogen (Alexa647-labelled)
composite z-score: 0.262

Compound: O=C1C2C=CC(C(O)c3cccs3)N(Nc3ccccc3F)C2C(=O)N1c1ccccc1 (centres undefined)
Target or system: Fibrinogen (Alexa647-labelled)
composite z-score: 0.916

Compound: COCCOC(=O)N1C(=O)[C@@]2(c3cc(C#CCNC(N)=O)ccc31)[C@H](C(=O)N1CCN(c3ncccn3)CC1)[C@H]1C(=O)O[C@H](c3ccccc3)[C@H](c3ccccc3)N1[C@@H]2c1ccccc1OCCO
Target or system: Fibrinogen (Alexa647-labelled)
composite z-score: 0.797
